Study System: Anti-CD28 scFv (VH-linker 1-VL) (biotinylated for capture on neutravidin plates)
Sequence (scFv, as listed by the source): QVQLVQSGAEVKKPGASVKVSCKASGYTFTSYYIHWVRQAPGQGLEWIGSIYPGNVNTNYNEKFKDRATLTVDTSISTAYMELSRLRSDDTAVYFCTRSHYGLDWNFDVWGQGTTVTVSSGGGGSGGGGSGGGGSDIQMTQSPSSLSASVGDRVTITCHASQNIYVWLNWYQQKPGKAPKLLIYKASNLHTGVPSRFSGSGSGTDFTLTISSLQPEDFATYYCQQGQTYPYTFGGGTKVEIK
Assay Overview: phage ELISA, scFv captured on plate;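 note: crude clonal phage supernatants added to wells preincubated with soluble CD28 or with blocking buffer only, bound phage read out by HRP-linked anti-M13 antibody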
Param threshold (2) applies to Phage binding ELISA CD28 scFv signal; output 1 when value >= threshold, -1 when value < threshold.

[[record]]
binder = "MDWCPMNMWYQCFN [Phage-216]"
qualitative_label = -1

[[record]]
binder = "MDWCPRDMWAECFF [Phage-190]"
qualitative_label = 1

[[record]]
binder = "MDWCPRPLWDMCFF [Phage-124]"
qualitative_label = 1

[[record]]
binder = "MDWCPRFLWDECFF [Phage-133]"
qualitative_label = 1

[[record]]
binder = "MSWCPQDLWHVCFN [Phage-167]"
qualitative_label = -1


Q) Assess whether reported Phage binding ELISA CD28 scFv signal for MYWCPRDLWDVCFN [Phage-181] sits at 2 or higher.
A) -1

Q) Say whether MDWCPRHLWDQCFA [Phage-161] shows Phage binding ELISA CD28 scFv signal of 2 or more.
A) -1

Q) Identify whether the reported Phage binding ELISA CD28 scFv signal of the following binder is 2 or greater: MHWCPRDLWVVCFN [Phage-147]
A) -1

Q) Would you say MDWCPRHLWDECFF [Phage-118] shows Phage binding ELISA CD28 scFv signal at minimum 2?
A) 1

Q) Determine whether this binder has Phage binding ELISA CD28 scFv signal no lower than 2: MDWCPRYLWTECFF [Phage-158]
A) -1

Q) In plain terms: is recorded Phage binding ELISA CD28 scFv signal at least 2 for MDWCPRFLWNECFN [Phage-126] ?
A) 1

Q) Determine whether this binder has Phage binding ELISA CD28 scFv signal no lower than 2: MDWCPSYLWDQCFF [Phage-188]
A) -1

Q) Has MDWCPRDLWNVCFA [Phage-154] a recorded Phage binding ELISA CD28 scFv signal greater than or equal to 2?
A) -1

Q) Hello, I need to know if MDWCPKFLWDLCFA [Phage-164] has measured Phage binding ELISA CD28 scFv signal not below 2. Thanks!
A) -1

Q) Could you verify whether the entry IHWCPINMWDKCYN [Phage-206] shows Phage binding ELISA CD28 scFv signal of no less than 2?
A) 1

Q) Can MDWCPRNMWTVCFL [Phage-211] be said to have Phage binding ELISA CD28 scFv signal at or above 2?
A) -1

Q) Does MDWCPKHLWNECFN [Phage-174] have a reported Phage binding ELISA CD28 scFv signal of at least 2?
A) -1

Q) Does the binder QDWCPTYLWHHCFN [Phage-186] have recorded Phage binding ELISA CD28 scFv signal that is 2 or more?
A) -1
